System: HBV genotype D
Assay: Antiviral activity against HBV genotype D infected in human HepG2.2.15 cells assessed as inhibition of viral DNA level treated twice for 3 days measured after 6 days by real time PCR
Format: functional, organism-based
Conditions: Hepatitis B virus
Below: a set of entries, each annotated with reported log10(EC50).
The base-10 logarithm of EC50, taken with EC50 in nM, is what appears here.

Look over these answered cases.
{"columns": ["record smiles", "log10(EC50)"],
 "data": [
  ["CCN(CC)S(=O)(=O)c1ccc(Cl)c(C(=O)Nc2ccccc2)c1", 3.02],
  ["O=C(Nc1ccc(F)cc1)c1cccc(S(=O)(=O)N2CCOCC2)c1", 3.93],
  ["O=C(Nc1ccncc1)c1cc(S(=O)(=O)NC2CCCCC2)ccc1F", 3.72]
]}

Exam item: Please give the measured log10(EC50) for this molecule: `O=C(Nc1ccc(F)cc1)c1cccc(NS(=O)(=O)C2CCCC2)c1`
Marked response: 3.08

Exam item: Same question for `CC(C)NS(=O)(=O)c1cccc(C(=O)Nc2ccc(F)c(C(C)C)c2)c1` please.
Marked response: 3.15

----------
Assay: Drug metabolism in mouse liver microsomes at 1 uM after 15 mins by LC-MS/MS analysis
Type: ADME, microsome
Conditions: read-out: Drug metabolism
attribute measured: metabolised at 0.25 h, 1 µM (%)
// return numeric value only (unit: %, not printed)

Look over these answered cases.
{"columns": ["record smiles", "u", "metabolised at 0.25 h, 1 µM"],
 "data": [
  ["CC1(NS(=O)(=O)c2cccc(C(=O)Nc3ccc(F)cc3)c2)COC1", "%", 29],
  ["O=C(Nc1ccc(F)cc1)c1cccc(S(=O)(=O)NC2CCC2)c1", "%", 99],
  ["O=C(Nc1cccc(F)c1)c1cccc(S(=O)(=O)NC2CCCC2)c1", "%", 100]
]}

Exam item: Please give the measured metabolised at 0.25 h, 1 µM for this molecule: `CN(c1cccc(C(=O)Nc2ccc(F)cc2)c1)S(=O)(=O)C1CCCC1`
Marked response: 99

Exam item: Same question for `CC(=O)N1CCN(S(=O)(=O)c2cccc(C(=O)Nc3ccc(F)cc3)c2)CC1` please.
Marked response: 52

Exam item: Same question for `O=C(Nc1ccc(F)cc1)c1cccc(S(=O)(=O)N[C@@H]2CCOC2)c1` please.
Marked response: 24

Exam item: Same question for `O=C(Nc1ccccc1)c1cccc(S(=O)(=O)NC2CCCC2)c1` please.
Marked response: 98

Exam item: Same question for `CC(C)(C)NS(=O)(=O)c1cccc(C(=O)Nc2ccc(F)cc2)c1` please.
Marked response: 31

Exam item: Same question for `O=C(Nc1ccc(F)cc1)c1cccc(S(=O)(=O)N2CCCCC2)c1` please.
Marked response: 99

Exam item: Same question for `Cc1cc(NC(=O)c2cccc(S(=O)(=O)N[C@H]3CCOC3)c2)c(F)cc1F` please.
Marked response: 69

----------
System: HBV genotype D
Experiment: Antiviral activity against HBV genotype D infected in human HepG2.2.15 cells assessed as inhibition of viral DNA level treated twice for 3 days measured after 6 days by real time PCR
Format: functional, organism-based
Settings: hepatitis B virus genotype D
attribute measured: Activity

{"columns": ["record smiles", "Activity"],
 "data": [
  ["O=C(Nc1ccc(F)cc1)c1ccc(Cl)c(S(=O)(=O)N2CCCCCC2)c1", "Dose-dependent effect"],
  ["O=C(Nc1ccccc1)c1cccc(S(=O)(=O)NC2CCCC2)c1", "Dose-dependent effect"],
  ["CCN(CC)S(=O)(=O)c1ccc(Cl)c(C(=O)Nc2ccccc2)c1", "Dose-dependent effect"],
  ["O=C(Nc1ccccc1)c1ccc(F)c(S(=O)(=O)NC2CCCCC2)c1", "Dose-dependent effect"]
]}

Next molecule, please.
Exam item: Please give the measured Activity for this molecule: `O=C(Nc1ccccc1)c1cc(S(=O)(=O)N2CCCCC2)c(Cl)cc1Cl`
Marked response: Dose-dependent effect
